These data points were gathered from patent US20230025707A1.

# target-under-test: human α-Synuclein pre-formed fibrils (human, UniProt P37840 1-140)
# procedure-text: cell-based or functional assay

- binder: "9092 (antibody, IgG1, V domains shown) VH: QVQLQQSGPELVKPGASVRISCKASGYTFTTFYLHWVKQRPGQGLEWIGWIYPVNVKIKYSERFKGKATLTADKSSSTAYMQLGSLTSEDSAVYFCVRGGRGLDYWGQGTTLTVSS VL: NIMMTQSPSSLAVSAGEKVTMSCKSSQSVLYSSNQKNYLAWYQQKPGQSPKMLIYWASFRESGVPDRFTGSGSGTDFTLTISSVQAEDLAVYYCHQYLSLFTFGSGTKLEIK"
  % Inhibition (primary neuron assay) [%]: -27.9
- binder: "9099 (antibody, IgG2b, V domains shown) VH: EVQLVESGGVLVKPGGSLKLSCAASGFTFSSFAMSWVRQTPEKRLEWVATISNGGSYTYYPDSVKGRFTISRDNAKNTLYLRMSSLRSEDTAMYYCVRRATTRGYFDYWGQGTTLTVSS VL: QIFLTQSPAIMSASPGEKVTMTCSASSSVSYMYWYQQKPGSSPRLLIYDSSKLASGVPVQFSGSGSGTSYSLTISRMEAEDAATYYCQQWRSYPPTFGAGTKLELK"
  % Inhibition (primary neuron assay) [%]: 85.3
